Test system: Liver microsome
test-description: Drug metabolism in pooled human liver microsomes assessed as IC50 for hecogenin-mediated inhibition of anastrozole glucuronidation after 90 mins
Assay type: ADME
condition-info: 1.5 h
pIC50: −log10 of the molar value.
measured-metric: pIC50

{"columns": ["smiles-repr", "experimental-target", "measured-result"],
 "data": [
  ["CC(C)(C#N)c1cc(Cn2cncn2)cc(C(C)(C)C#N)c1", "Liver microsome", 4.82]
]}
